Consider the following compounds; for each one, report its cytotoxicity at 70.5 h.
test: Human HepG2 cell viability assay in 384 well format
Assay type: toxicity, cell-based
Parameters: dose 125 nL, time 70.5 hour; concentration not given beside the values
test conditions: HepG2 cells, read-out: Inhibition
Give bare numbers, in %.

compound: COCC1CN(Cc2cccnc2OC)Cc2cnn(C)c21 (stereo not drawn)
measured property: cytotoxicity at 70.5 h
unit: %
observed result: 6.07

compound: CCn1nc(C)c2nnn(CC(=O)Nc3ccc(C)cc3)c(=O)c21
measured property: cytotoxicity at 70.5 h
unit: %
observed result: -4.64

compound: O=C(CCc1cc(Cl)no1)N1CCC(c2cc3ncccc3cn2)CC1
measured property: cytotoxicity at 70.5 h
unit: %
observed result: 0.563

Go through the list and state cytotoxicity at 70.5 h for each entry.
1. Cn1nc(-c2ccc(F)cc2)cc1C(=O)NCCn1ccnc1
2. Cn1cncc1-c1nnc([C@H]2CCN(Cc3cccnc3)C2)o1
3. CO[C@@H](C(=O)NC1CCOCC1)c1ccccc1
4. C[C@H](c1ccc(F)cc1)n1c(C2CCC2)n[nH]c1=O

Reply:
1: -10.2; 2: -2.71; 3: 9.39; 4: -12.6

Query: # cytotoxicity at 70.5 h lookup, item CCN1CCC(CNC(=O)C(c2ccccc2F)N(C)C)(N(C)C)CC1 (stereo not drawn)
Reply: -2.78

###

test: Human HepG2 cell viability assay in 384 well format
Format: toxicity, cell-based
Set-up: dose 125 nL, time 70.5 hour; concentration not given beside the values
test conditions: HepG2 cells, read-out: Inhibition
Consider the following compounds; for each one, report its cytotoxicity at 70.5 h.
Hi, when you answer, please include the unit after the number. Thanks!

# count of solved cases: 3
compound: CCc1nc2ccccc2n1C(CC)C(=O)N(C)CCc1noc(C)n1 (centres undefined)
measured property: cytotoxicity at 70.5 h
observed result: -20.6%

compound: C/N=C1\c2cc3cc(OC)ccc3n2CCN1Cc1ccccc1.O=C(O)C(F)(F)F
measured property: cytotoxicity at 70.5 h
observed result: 68.5%

compound: CC(C)c1noc(CN2CCN(C(=O)c3ccccc3F)CC2)n1
measured property: cytotoxicity at 70.5 h
observed result: -18.6%

With those in mind, consider the next compound.
Query: # cytotoxicity at 70.5 h lookup, item CS(=O)(=O)Cc1nc(CN2CCCc3sccc3C2)cs1
Reply: -5.84%

###

Consider the following molecules; for each one, report its cytotoxicity at 70.5 h.
test: Human HepG2 cell viability assay in 384 well format
Assay type: toxicity, cell-based
Parameters: dose 125 nL, time 70.5 hour; concentration not given beside the values
test conditions: HepG2 cells, read-out: Inhibition
One number for each entry, in %.

# count of solved cases: 3
molecule: CN(C)c1nccnc1C1CCCN(c2cnccn2)C1 (stereo not drawn)
unit: %
cytotoxicity at 70.5 h: -3.09
--
molecule: CC(C)N(C)Cc1ncn2c1CN(CC(=O)N(C)C)CCC2
unit: %
cytotoxicity at 70.5 h: 8.76
--
molecule: COc1ccc(S(=O)(=O)N2CC(CC(=O)O)c3ccccc32)cc1 (stereo not drawn)
unit: %
cytotoxicity at 70.5 h: -0.927

Go through the list and state cytotoxicity at 70.5 h for each entry.
1. CN(CC(=O)N1CCC(N(C)c2ccccc2)CC1)c1cnccn1
2. O=C(NCC(O)COc1cccc(F)c1)C1(c2ccc(F)cc2)CC1 (stereo not drawn)
3. O=C(NCC1CCOCC1)[C@H]1C[C@@H]2CCN(c3nncs3)C[C@@H]2O1
4. COCCC(=O)N1CCCC(CCC(=O)NCc2ccccc2F)C1 (stereo not drawn)
5. Cc1nc(CC(=O)N2CCCC(n3ccnc3C(C)C)C2)cs1 (stereo not drawn)
6. O=C(Cc1ccccc1Br)NCC(=O)Nc1cn[nH]c1
7. CC(C)[C@H](Nc1cc(-c2ccncc2)nc2ccnn12)C(N)=O
8. COc1ccc(CCC(=O)N2CCCC(n3cncn3)C2)cc1 (stereo not drawn)

Reply:
1: 0.531; 2: -12; 3: -9.76; 4: -6.55; 5: -6.07; 6: -6.36; 7: 6.65; 8: -7.91

Go through the list and state cytotoxicity at 70.5 h for each entry.
1. CN1CC(c2ccccc2)CC2(CCN(CC(=O)N(C)C)CC2)C1 (stereo not drawn)
2. Cc1n[nH]c(C)c1CNC(=O)CSCc1ccccc1Cl

Reply:
1. -8.78
2. -0.888

###

test: Human HepG2 cell viability assay in 384 well format
Type: toxicity, cell-based
Parameters: dose 125 nL, time 70.5 hour; concentration not given beside the values
test conditions: HepG2 cells, read-out: Inhibition
measured property: cytotoxicity at 70.5 h (%)
Give bare numbers, in %.

molecule: Cc1nn(C(C)C)c(C)c1CN1CCN(C2CCCCC2)C(=O)C1
unit: %
observed result: -3.48
--
molecule: Cc1cc(C(=O)N2CCCC(c3nccn3Cc3cscn3)C2)on1 (stereo unspecified)
unit: %
observed result: -6.42
--
molecule: CCC(CO)NCc1ccc(-c2ccccc2F)o1 (stereo unspecified)
unit: %
observed result: -6.8
--
molecule: O=C(NCc1ccccn1)[C@@H]1CC[C@@H]2[C@@H](CCN2c2ncc(F)cn2)O1
unit: %
observed result: -11.3
--
molecule: CCc1[nH]nc(NC(=O)c2ccc(Cl)cn2)c1C
unit: %
observed result: 7.84

Go through the list and state cytotoxicity at 70.5 h for each entry.
1. Cc1cccc(C(C(=O)NCCn2cccc2)N(C)C)c1 (stereo unspecified)
2. Cc1ccn(CC(=O)NCCCOc2ccccc2F)c(=O)c1
3. O=C(NCC1CCCO1)c1cc(Sc2ncccn2)ccn1 (stereo unspecified)
4. O=S(=O)(CCOc1ccc(F)cc1)Nc1cnn(CC(F)F)c1
5. COCCS(=O)(=O)Nc1ccc(-n2nccc2C(F)(F)F)cc1

Reply:
1. -12.1
2. -7.65
3. 24.8
4. -6.59
5. 18.2

Go through the list and state cytotoxicity at 70.5 h for each entry.
1. Cn1cc(N2C(=O)CC[C@@H]3[C@H]2CCN3CCc2ccccc2)cn1
2. CCN1C(=O)CC(c2cnn(C)c2)C12CCN(C(=O)c1ccoc1)CC2 (stereo unspecified)
3. Cc1cc(N2CCc3c(nc(C(C)C)n3C)C2)nc(N)n1
4. CC(Cn1cccn1)NC(=O)NCc1ccccn1 (stereo unspecified)
5. Cc1nn(-c2ccc(F)cc2)c2[nH]nc(N)c12

Reply:
1: 16.8; 2: -0.434; 3: -10.6; 4: -3.27; 5: 8.73

Go through the list and state cytotoxicity at 70.5 h for each entry.
1. Cc1cc(N2CCC(N(C)C(=O)c3ccccc3F)CC2)nc(C)n1
2. N#Cc1cccc(N2CCCC3(C2)CN(c2ncc(F)cn2)CCO3)n1 (stereo unspecified)
3. CCc1nnc2ccc(NCC3(N4CCCCC4)CCOCC3)nn12
4. Cc1ccc(NC(=O)N2CCOC(C)(c3cnn(C)c3)C2)c(C)c1 (stereo unspecified)
5. NC(=O)C1CN(C(=O)NCC2(c3ccc(F)cc3)CCC2)CCO1 (stereo unspecified)
6. COCCNC(=O)[C@@H]1CCO[C@@H]2CCN(Cc3cnn(C)c3)C[C@@H]21

Reply:
[15.8, 1.87, -7.09, -3.64, 1.35, -11.1]

###

test: Human HepG2 cell viability assay in 384 well format
Format: toxicity, cell-based
Design: dose 125 nL, time 70.5 hour; concentration not given beside the values
test conditions: HepG2 cells, read-out: Inhibition
Consider the following molecules; for each one, report its cytotoxicity at 70.5 h.
Answers are plain numbers, in %.

molecule: Cc1nc(NCCN2CCCC2=O)cc(C2CN(C)CCO2)n1 (centres undefined)
cytotoxicity at 70.5 h [%]: 1.86
--
molecule: NC(=O)CN1CCC(Nc2ccnc3ccc(Cl)cc23)CC1
cytotoxicity at 70.5 h [%]: -1.05
--
molecule: CN(C)C(=O)CO[C@H]1CN(Cc2cccc(C#N)c2)[C@@H]2COC[C@H]12
cytotoxicity at 70.5 h [%]: 7.63

Go through the list and state cytotoxicity at 70.5 h for each entry.
1. COCCN1CCN(CCCc2nnnn2-c2ccccc2)CC1
2. N#Cc1ccccc1N1CCN(CCC(=O)N2CCOCC2)CC1
3. CCCC(NC(=O)NCc1cccc(N(C)C)n1)c1ccccn1 (centres undefined)

Reply:
1: -14.2; 2: -3.68; 3: -18.8

Go through the list and state cytotoxicity at 70.5 h for each entry.
1. Cc1noc(C)c1CN(C)C(=O)c1cnc(C2CC2)nc1O
2. Cc1ccc([C@@]2(O)CC[C@@H]3CN(S(=O)(=O)C(C)C)C[C@@H]32)cc1
3. CS(=O)(=O)Cc1nc(CCc2ccccc2)nn1-c1ccccn1
4. CC(NC(=O)N1CCC2(C1)OCCO2)c1ccc(F)cc1Cl (centres undefined)

Reply:
8.69
2.49
-10.4
4.97

Go through the list and state cytotoxicity at 70.5 h for each entry.
1. CC(CN1CCOCC1)N(Cc1ccccc1)Cc1ccncc1 (centres undefined)
2. CN(Cc1nc2ccccc2n1C)C(=O)CCc1cscn1
3. CN(Cc1c(Cl)ccc2cccnc12)CC(C)(CO)CO

Reply:
1. -6.88
2. -1.17
3. -10.4
